Sourced from ChEMBL document CHEMBL1156451

System: Bordetella bronchiseptica
assay remarks: Antibacterial activity against Bordetella bronchiseptica CUN 11844-99 after 24 hrs in Mueller-Hinton broth medium
Type: functional
Where a SMILES comes first, the peptide text is derived from it.
measurement type: MIC

| compound | result |
| --- | --- |
| CC[C@H](C)[C@H](NC(=O)[C@H](CCCNC(=N)N)NC(=O)[C@H](CCCCN)NC(=O)[C@H](CO)NC(=O)[C@@H](NC(=O)CNC(=O)[C@H](CCCNC(=N)N)NC(=O)[C@H](CC(C)C)NC(=O)[C@@H](NC(=O)[C@@H](N)CCCCN)[C@@H](C)CC)C(C)C)C(=O)N[C@@H](CC(C)C)C(=O)N[C@H](C(=O)NCC(=O)N[C@@H](CCCCN)C(=O)N[C@@H](CCCCN)C(N)=O)[C@@H](C)O (H-KILRGVSKRILTGKK-NH2) | > 64 µg/mL |
| CC[C@H](C)[C@H](N)C(=O)N[C@@H](CO)C(=O)N[C@@H](CCCCN)C(=O)N[C@@H](CCCNC(=N)N)C(=O)N[C@H](C(=O)N[C@@H](CC(C)C)C(=O)N[C@H](C(=O)NCC(=O)N[C@@H](CCCCN)C(=O)N[C@@H](CCCCN)C(=O)O)[C@@H](C)O)[C@@H](C)CC (H-ISKRILTGKK-OH) | > 256 µg/mL |
| CC[C@H](C)[C@H](NC(=O)[C@H](CCCCN)NC(=O)[C@H](CCCCN)NC(=O)[C@H](CO)NC(=O)[C@@H](NC(=O)CNC(=O)[C@H](CCCNC(=N)N)NC(=O)[C@H](CC(C)C)NC(=O)[C@@H](NC(=O)[C@@H](N)CCCCN)[C@@H](C)CC)C(C)C)C(=O)N[C@@H](CCSC)C(=O)N[C@@H](CCCNC(=N)N)C(=O)N[C@H](C(=O)N[C@@H](Cc1ccccc1)C(=O)N[C@@H](CC(C)C)C(=O)N[C@@H](CCCNC(=N)N)C(=O)N[C@@H](CCCNC(=N)N)C(N)=O)[C@@H](C)O (H-KILRGVSKKIMRTFLRR-NH2) | 8 µg/mL |

###

Tested on: Brucella abortus
assay remarks: Antibacterial activity against Brucella abortus 9.49 (per-) after 48 hrs in Mueller-Hinton broth medium
Type: functional
Where a SMILES comes first, the peptide text is derived from it.

| compound | target or system | qual | MIC [µg/mL] |
| --- | --- | --- | --- |
| CC[C@H](C)[C@H](NC(=O)[C@H](CCCNC(=N)N)NC(=O)[C@H](CCCCN)NC(=O)[C@H](CO)NC(=O)[C@@H](NC(=O)[C@@H](N)CCCCN)[C@@H](C)CC)C(=O)N[C@@H](CC(C)C)C(=O)N[C@H](C(=O)NCC(=O)N[C@@H](CCCCN)C(=O)N[C@@H](CCCCN)C(=O)O)[C@@H](C)O (H-KISKRILTGKK-OH) | Brucella abortus | > | 256 |
| CC[C@H](C)[C@H](NC(=O)[C@H](CCCCN)NC(=O)[C@H](CCCCN)NC(=O)[C@H](CO)NC(=O)[C@@H](NC(=O)CNC(=O)[C@H](CCCNC(=N)N)NC(=O)[C@H](CC(C)C)NC(=O)[C@@H](NC(=O)[C@@H](N)CCCCN)[C@@H](C)CC)C(C)C)C(=O)N[C@@H](CCSC)C(=O)N[C@@H](CCCNC(=N)N)C(=O)N[C@@H](CCCNC(=N)N)C(=O)N[C@H](C(=O)N[C@@H](CC(C)C)C(=O)N[C@H](C(=O)NCC(=O)N[C@@H](CCCCN)C(=O)N[C@@H](CCCCN)C(N)=O)[C@@H](C)O)[C@@H](C)CC (H-KILRGVSKKIMRRILTGKK-NH2) | Brucella abortus | = | 64 |
| CC[C@H](C)[C@H](N)C(=O)N[C@@H](CO)C(=O)N[C@@H](CCCCN)C(=O)N[C@@H](CCCNC(=N)N)C(=O)N[C@H](C(=O)N[C@@H](CC(C)C)C(=O)N[C@H](C(=O)NCC(=O)N[C@@H](CCCCN)C(=O)N[C@@H](CCCCN)C(=O)O)[C@@H](C)O)[C@@H](C)CC (H-ISKRILTGKK-OH) | Brucella abortus | > | 64 |
| CC[C@H](C)[C@H](NC(=O)[C@H](CCCCN)NC(=O)[C@H](CCCCN)NC(=O)[C@H](CO)NC(=O)[C@@H](NC(=O)CNC(=O)[C@H](CCCNC(=N)N)NC(=O)[C@H](CC(C)C)NC(=O)[C@@H](NC(=O)[C@@H](N)CCCCN)[C@@H](C)CC)C(C)C)C(=O)N[C@@H](CCSC)C(=O)N[C@@H](CCCNC(=N)N)C(=O)N[C@H](C(=O)N[C@@H](Cc1ccccc1)C(=O)N[C@@H](CC(C)C)C(=O)N[C@@H](CCCNC(=N)N)C(=O)N[C@@H](CCCNC(=N)N)C(N)=O)[C@@H](C)O (H-KILRGVSKKIMRTFLRR-NH2) | Brucella abortus | = | 16 |

###

# reported MBC; entries follow
Tested on: Escherichia coli
assay remarks: Antibacterial activity against Escherichia coli ATCC 25922 after 24 hrs in Mueller-Hinton broth medium
Assay type: functional
measurement parameters: ATCC 25922, 24 h
Where a SMILES comes first, the peptide text is derived from it.
measurement type: MBC

| compound | target or system | result |
| --- | --- | --- |
| CC[C@H](C)[C@H](NC(=O)[C@H](CCCCN)NC(=O)[C@H](CCCCN)NC(=O)[C@H](CO)NC(=O)[C@@H](NC(=O)CNC(=O)[C@H](CCCNC(=N)N)NC(=O)[C@H](CC(C)C)NC(=O)[C@@H](NC(=O)[C@@H](N)CCCCN)[C@@H](C)CC)C(C)C)C(=O)N[C@@H](CCSC)C(=O)N[C@@H](CCCNC(=N)N)C(=O)N[C@@H](CCCNC(=N)N)C(=O)N[C@H](C(=O)N[C@@H](CC(C)C)C(=O)N[C@H](C(=O)NCC(=O)N[C@@H](CCCCN)C(=O)N[C@@H](CCCCN)C(N)=O)[C@@H](C)O)[C@@H](C)CC (H-KILRGVSKKIMRRILTGKK-NH2) | Escherichia coli | 32 µg/mL |
| CC[C@H](C)[C@H](NC(=O)[C@H](CCCNC(=N)N)NC(=O)[C@H](CCCCN)NC(=O)[C@H](CO)NC(=O)[C@@H](NC(=O)CNC(=O)[C@H](CCCNC(=N)N)NC(=O)[C@H](CC(C)C)NC(=O)[C@@H](NC(=O)[C@@H](N)CCCCN)[C@@H](C)CC)C(C)C)C(=O)N[C@@H](CC(C)C)C(=O)N[C@H](C(=O)NCC(=O)N[C@@H](CCCCN)C(=O)N[C@@H](CCCCN)C(N)=O)[C@@H](C)O (H-KILRGVSKRILTGKK-NH2) | Escherichia coli | > 256 µg/mL |
| CC[C@H](C)[C@H](NC(=O)[C@H](CCCNC(=N)N)NC(=O)[C@H](CCCCN)NC(=O)[C@H](CO)NC(=O)[C@@H](NC(=O)[C@@H](N)CCCCN)[C@@H](C)CC)C(=O)N[C@@H](CC(C)C)C(=O)N[C@H](C(=O)NCC(=O)N[C@@H](CCCCN)C(=O)N[C@@H](CCCCN)C(=O)O)[C@@H](C)O (H-KISKRILTGKK-OH) | Escherichia coli | > 256 µg/mL |

###

Tested on: Staphylococcus aureus
assay remarks: Antibacterial activity against methicillin-resistant Staphylococcus aureus ATCC 43300 after 24 hrs in Mueller-Hinton broth medium
Assay type: functional
measurement parameters: ATCC 43300, 24 h
Where a SMILES comes first, the peptide text is derived from it.
measurement type: MBC

| compound | measurement type | result |
| --- | --- | --- |
| CC[C@H](C)[C@H](NC(=O)[C@H](CCCCN)NC(=O)[C@H](CCCCN)NC(=O)[C@H](CO)NC(=O)[C@@H](NC(=O)CNC(=O)[C@H](CCCNC(=N)N)NC(=O)[C@H](CC(C)C)NC(=O)[C@@H](NC(=O)[C@@H](N)CCCCN)[C@@H](C)CC)C(C)C)C(=O)N[C@@H](CCSC)C(=O)N[C@@H](CCCNC(=N)N)C(=O)N[C@H](C(=O)N[C@@H](Cc1ccccc1)C(=O)N[C@@H](CC(C)C)C(=O)N[C@@H](CCCNC(=N)N)C(=O)N[C@@H](CCCNC(=N)N)C(N)=O)[C@@H](C)O (H-KILRGVSKKIMRTFLRR-NH2) | MBC | 128 µg/mL |
| CC[C@H](C)[C@H](NC(=O)[C@H](CCCCN)NC(=O)[C@H](CCCCN)NC(=O)[C@H](CO)NC(=O)[C@@H](NC(=O)[C@@H](N)CCCCN)[C@@H](C)CC)C(=O)N[C@@H](CCSC)C(=O)N[C@@H](CCCNC(=N)N)C(=O)N[C@H](C(=O)N[C@@H](Cc1ccccc1)C(=O)N[C@@H](CC(C)C)C(=O)N[C@@H](CCCNC(=N)N)C(=O)N[C@@H](CCCNC(=N)N)C(N)=O)[C@@H](C)O (H-KISKKIMRTFLRR-NH2) | MBC | > 256 µg/mL |
| CC[C@H](C)[C@H](NC(=O)[C@H](CCCNC(=N)N)NC(=O)[C@H](CCCCN)NC(=O)[C@H](CO)NC(=O)[C@@H](NC(=O)CNC(=O)[C@H](CC(C)C)NC(=O)[C@@H](NC(=O)[C@@H](N)CCCCN)[C@@H](C)CC)C(C)C)C(=O)N[C@@H](CC(C)C)C(=O)N[C@H](C(=O)NCC(=O)N[C@@H](CCCCN)C(=O)N[C@@H](CCCCN)C(N)=O)[C@@H](C)O (H-KILGVSKRILTGKK-NH2) | MBC | > 256 µg/mL |
| CC[C@H](C)[C@H](NC(=O)[C@H](CCCNC(=N)N)NC(=O)[C@H](CCCCN)NC(=O)[C@H](CO)NC(=O)[C@@H](NC(=O)[C@@H](N)CCCCN)[C@@H](C)CC)C(=O)N[C@@H](CC(C)C)C(=O)N[C@H](C(=O)NCC(=O)N[C@@H](CCCCN)C(=O)N[C@@H](CCCCN)C(=O)O)[C@@H](C)O (H-KISKRILTGKK-OH) | MBC | > 256 µg/mL |
| CC[C@H](C)[C@H](N)C(=O)N[C@@H](CO)C(=O)N[C@@H](CCCCN)C(=O)N[C@@H](CCCNC(=N)N)C(=O)N[C@H](C(=O)N[C@@H](CC(C)C)C(=O)N[C@H](C(=O)NCC(=O)N[C@@H](CCCCN)C(=O)N[C@@H](CCCCN)C(=O)O)[C@@H](C)O)[C@@H](C)CC (H-ISKRILTGKK-OH) | MBC | > 256 µg/mL |
| CC[C@H](C)[C@H](NC(=O)[C@H](CCCCN)NC(=O)[C@@H](N)CCCCN)C(=O)N[C@@H](CCSC)C(=O)N[C@@H](CCCNC(=N)N)C(=O)N[C@H](C(=O)N[C@@H](Cc1ccccc1)C(=O)N[C@@H](CC(C)C)C(=O)N[C@@H](CCCNC(=N)N)C(=O)N[C@@H](CCCNC(=N)N)C(N)=O)[C@@H](C)O (H-KKIMRTFLRR-NH2) | MBC | > 256 µg/mL |
